Source: the supplement of paper PMC7411640

test system: MDA-MB-468; assay: phospho-S6 immunofluorescence (DAPI-normalised), per-plate z-score; higher = higher phospho-S6 signal (less pathway suppression); conditions: co-treatment: GDC0941 450 nM; 24 h
Where a name gives a salt, the structure may show the parent alone.
Returns one of Y or N; Y when phospho-S6 immunofluorescence (z-score) is >= 0.3.

# molecule, target-of-assay, discrete-label
measured = [
    ("O=C1NCC2(CCN(CCc3ccccc3)CC2)O1 [Fenspiride (Hydrochloride)] (compound 10 µM)", "MDA-MB-468", "Y"),
    ("CN(C)CCSSCCNC(=O)C1CCN(C(=O)CSc2ccc(Cl)cc2)CC1 [6H05 (trifluoroacetate)] (compound 10 µM)", "MDA-MB-468", "N"),
    ("COc1cc(C(=O)NCc2ccc(OCCN(C)C)cc2)cc(OC)c1OC [Trimethobenzamide hydrochloride] (compound 10 µM)", "MDA-MB-468", "N"),
    ("CNC(=C[N+](=O)[O-])NCCSCc1ccc(CN(C)C)o1 [Ranitidine (hydrochloride)] (compound 10 µM)", "MDA-MB-468", "Y"),
    ("O=C(O[C@@H]1C[C@@H]2C[C@H]3C[C@H](C1)N2CC3=O)c1c[nH]c2ccccc12 [Dolasetron] (compound 10 µM)", "MDA-MB-468", "N"),
]

Incoming: Determine whether measured phospho-S6 immunofluorescence (z-score) meets or exceeds 0.3 for CN1CCN(C(=O)c2cc3cc(Cl)ccc3[nH]2)CC1 (compound 10 µM)
Outgoing: N
